target: Mm_Fpr2 (Mus musculus, UniProt O88536); construct: expressed in transfected cells; experiment: Internalization of FLAG-tagged receptors by flow cytometry; assay type: cell-based; conditions: Mm_Fpr2, 30 min, relative to 1 μM WKYMVm
reportedEndpoint: agonist-induced internalization (words)

| molecule | result |
| --- | --- |
| CCCCOc1ccc(C(=O)NN2C(=O)c3ccccc3NC2c2ccc(OC)cc2)cc1 (stereo not shown) | partial agonists |
| CC(C)c1c(NC(=O)Nc2ccc(Cl)cc2)c(=O)n(-c2ccccc2)n1C | partial agonists |

----------
Target: Mm_Fpr2 (Mus musculus, UniProt O88536)
Construct: expressed in transfected cells
Sequence (O88536 1-351): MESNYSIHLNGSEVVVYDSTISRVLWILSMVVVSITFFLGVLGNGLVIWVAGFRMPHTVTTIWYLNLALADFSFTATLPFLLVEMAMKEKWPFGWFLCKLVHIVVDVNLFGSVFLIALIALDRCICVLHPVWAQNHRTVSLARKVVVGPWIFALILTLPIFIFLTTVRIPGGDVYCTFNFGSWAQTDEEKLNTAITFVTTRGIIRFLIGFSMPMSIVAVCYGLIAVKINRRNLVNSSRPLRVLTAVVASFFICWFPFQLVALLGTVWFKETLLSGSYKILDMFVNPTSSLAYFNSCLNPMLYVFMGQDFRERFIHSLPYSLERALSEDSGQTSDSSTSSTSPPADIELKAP
Experiment: Competition binding of fluorescent WKYMVm, flow cytometry
Conditions: maximum proportion of competition with 10 nM K(5/6-FAM)-WKYMVm; mean; ND = no competition observed
Where a SMILES comes first, the peptide text is derived from it. The star is where a group is joined. Palmitoyl = CCCCCCCCCCCCCCCC(=O)*; For = O=C*
reportedEndpoint: Max Comp (%)

| compound | measuredTarget | number |
| --- | --- | --- |
| CCCCOc1ccc(C(=O)NN2C(=O)c3ccccc3NC2c2ccc(OC)cc2)cc1 (stereo not drawn) | Mm_Fpr2 (Mus musculus, UniProt O88536) | 27.99 |
| COc1cc(F)c([C@@H]2CNC(=O)[C@H]2NC(=O)Nc2ccccc2)c(F)c1 | Mm_Fpr2 (Mus musculus, UniProt O88536) | 78.55 |
| CCCCCCCCCCCCCCCC(=O)N[C@@H](CCCCN)C(=O)N[C@H](C(=O)N[C@@H](Cc1c[nH]cn1)C(=O)N[C@@H](CCCCN)C(=O)N[C@@H](CCCCN)C(=O)NCC(=O)N[C@@H](CCSC)C(=O)N[C@H](C(=O)N[C@@H](CCCCN)C(=O)N[C@@H](CO)C(=O)O)[C@@H](C)CC)[C@@H](C)CC [F2Pal10] (Palmitoyl-KIHKKGMIKS-OH) | Mm_Fpr2 (Mus musculus, UniProt O88536) | 100 |
| CSCC[C@H](NC=O)C(=O)N[C@@H](CC(C)C)C(=O)N[C@@H](Cc1ccccc1)C(=O)N[C@@H](CCCCN)C(=O)O [fMLFK, fMet-Leu-Phe-Lys] (For-MLFK-OH) | Mm_Fpr2 (Mus musculus, UniProt O88536) | 30.81 |
| CC(C)c1c(NC(=O)Nc2ccc(Cl)cc2)c(=O)n(-c2ccccc2)n1C | Mm_Fpr2 (Mus musculus, UniProt O88536) | 29.56 |
| Cc1cccc(-c2oc(C)nc2C(=O)Nc2cnn(Cc3nc(C(C)(F)F)co3)n2)c1 | Mm_Fpr2 (Mus musculus, UniProt O88536) | 80.31 |
